REPORTED_METRIC: melting point

Q: // melting point lookup, key: CCOC(=O)CC(=O)CC(O)/C=C/c1c(-c2ccccc2)c2ccccc2c(=O)n1C (stereo unspecified)
A: 148 to 149 °C

Q: Please give the result for Cc1ccc(C(=O)C2CCN(CCc3c[nH]c4ccccc34)CC2)cc1C too.
A: 172 to 173 °C

Q: Same question for CCOC(=O)c1nn(-c2ccc(OC)cc2)c2c1CCC2 please.
A: 108 to 109 °C

Q: O=c1[nH]c(CCN2CCN(c3nsc4ccccc34)CC2)cs1 ?
A: 190 °C

Q: Now give it for CC1CNc2c3c(nc4cccc(c24)O1)CCCC3 (stereo unspecified) too.
A: 169 to 170 °C

Q: Proceed to CCCCc1nc(C(C)(C)O)c(C(N)=O)n1Cc1ccc(-c2ccccc2C(=O)O)cc1
A: 130 to 138 °C

Q: What do you get for CCOC(=O)c1cccc2c(=O)c(C)c(-c3ccc(OC)cc3)oc12 ?
A: 137 to 139 °C

Q: How about CCn1nc2c(N)nc3ccccc3c2c1CCCCNS(C)(=O)=O ?
A: 192 to 194 °C

Q: And what about the compound CC(=O)N1c2ccc(N(C)C)cc2Sc2cc(N(C)C)ccc21 ?
A: 137 °C

Q: Record: C=C(C)COc1ccc(C(=O)C=Cc2c[nH]c3ccccc23)c(O)c1
A: 29 to 30 °C

Q: Further, for CCOC(=O)c1c(C)nc(N2CCN(C)CC2)c([N+](=O)[O-])c1N ?
A: 73 to 75 °C

Q: And O=C(Nc1ccccc1S(=O)(=O)c1ccccc1)N[C@@H](Cc1ccc(Oc2nccc3ccncc23)cc1)C(=O)O ?
A: 164 °C

Q: And what about the compound Nc1nc(N)c(-c2cccc(Cl)c2Cl)c(CO)n1 ?
A: 173 to 176 °C

Q: Same again, this time with O=C(O)c1ccc(=O)n(NC(=O)c2cccnc2)c1
A: > 250 °C

Q: Field entry: CCOC(=O)c1nnc(Cc2c(F)cccc2F)n1C
A: 127 to 128 °C

Q: Request: OC(CNCCCc1ccccc1)COc1cccc2[nH]ncc12 (stereo unspecified)
A: 122 to 124 °C

Q: For O=C(NC(Cc1cccc(Cl)c1)C(=O)N1CCSC1)c1cc2cc(Cl)ccc2[nH]1 (stereo unspecified) then?
A: 188 to 190 °C

Q: Same again, this time with COc1ccc(CNc2ccccc2[N+](=O)[O-])cc1
A: 75 to 78 °C

Q: Then this compound: Clc1cccc(-c2nc(-c3ccccn3)no2)c1Cl
A: 128 to 133 °C

Q: Next: COCCCn1nnnc1-c1cc(-c2cccc(C(=O)O)c2)c(OCc2ccccc2)cc1OCc1ccccc1
A: 59 to 63 °C

Q: Thanks! And N#CC1=C2C(=NC1=O)c1c(OCc3cccs3)ccc3cccc2c13 ?
A: 241 to 243 °C

---

REPORTED_METRIC: melting point

Q: For the compound shown here, N#Cc1ccccc1CN1CCSC1=O , give the reported melting point.
A: 116 to 117 °C

Q: Same again, this time with Cc1ccccc1C(=O)CC(C#N)C#N
A: 92 to 93 °C

Q: // next record CN(C)CCC1CN(C)C(=S)c2cc([N+](=O)[O-])ccc2O1 (stereo not drawn)
A: 104 to 109 °C

Q: Record: CCOC(=O)c1cnc(-c2cc3cccc(N)c3n2COC)s1
A: 188 to 190 °C

Q: What do we get for O=C(O)[C@]12CCCC[C@H]1CCc1ccccc12 (relative stereo) ?
A: 142 to 144 °C

Q: Then CC(C)C[C@H]1[C@@H]2C(=O)N(Cc3ccccc3)C(=O)[C@@H]2[C@H](c2ccc(C#N)cc2)N1C (racemic) ?
A: 173 to 174 °C

Q: Request: CS(=O)c1nnc2n1C=Cc1cc(Cl)ccc1C2 (stereo not drawn)
A: 183 to 185 °C

Q: Then CCCC[C@H]1CC[C@H](c2ccc(CCc3ccc(OC(F)F)cc3)cc2)CC1 ?
A: 32 °C

Q: Next up: O=S(=O)(c1cccc2ccccc12)c1n[nH]c2ccc(OC3CCCNC3)cc12 (stereo not drawn)
A: 178 to 180 °C

Q: Note, next up: COCOc1ccc(-c2cc(S(C)=O)nn2-c2ccc(OC)cc2)cc1 (stereo not drawn)
A: 137 °C

Q: Also need COc1ccc(C(C)(c2ccc(OC)cc2)c2ccc(OC)cc2)cc1 , thanks.
A: 160 °C

Q: Same question, COc1ccc(-c2sc3c(c2OC(C)=O)CCCc2ccccc2-3)cc1 this time
A: 154 °C

Q: Check CCN1CCCC1CNC(=O)c1nc(Cl)c(N)nc1OC (stereo not drawn) too.
A: 155 °C

Q: Another compound to look at: COC(=O)c1cccc2c([N+](=O)[O-])cccc12
A: 105 °C

Q: # repeat for COC(=O)C1(S(=O)(=O)N2CC=C(c3ccc(-c4ccccc4)c(C)c3)CC2)CCOCC1
A: 117 to 119 °C

Q: Record: COC(=O)c1ccc(CC(C)NCC(O)c2ccc(O)c(O)c2)cc1 (stereo not drawn)
A: 169 °C

Q: What do you have for CC(C)(C)NS(=O)(=O)c1ccc(C(=O)c2ccc(F)cc2)cc1 ?
A: 160 °C

Q: Next compound: O=S(=O)(c1ccc(Br)cc1)N1C=CC=NC=C1
A: 95 to 97 °C

Q: Could you do the same for COC(=O)c1cccc2[nH]nc(S(=O)(=O)NC(C)(C)C)c12 , please?
A: 218 to 220 °C

Q: Can you check Cc1cc2c(N)c(C(=O)c3cc(F)ccc3F)sc2nc1C next?
A: 188 °C

Q: // same read-out, input: CCc1cccc(CC)c1NC(=O)c1c2n(c(C)c(Br)c1=O)CCCC2
A: 208 to 210 °C

Q: Then this compound: CCC1(C)SC(NC)=NN1C(=O)C(C)(C)C (stereo not drawn)
A: 132 to 136 °C

Q: Check NC1N=C(c2ccccc2)c2ccccc2N(CC(F)(F)F)C1=O (stereo not drawn) too.
A: 141 to 143 °C

Q: Same for N#Cc1c(C(=Nc2ccccc2)c2ccccc2)n(O)c2ccccc12
A: 188 to 190 °C

Q: Next compound up: CC(=O)NS(=O)(=O)c1ccc(-n2cc(C)cc2-c2ccc(C)c(C)c2)cc1
A: 192 to 193 °C

Q: Would you mind doing CC1CCC(Nc2c(C#N)c3ccccc3n2C)=CC1=O (stereo not drawn) as well?
A: 194 to 195 °C

Q: What about this compound? CC(C)(C)OC(=O)Nc1cccc(-c2noc(CCC(=O)O)n2)c1
A: 143 to 144 °C

Q: Then what about the compound Oc1c(Cl)nc(-c2ccccc2)nc1Cl ?
A: 138 to 140 °C

Q: // same read-out, input: CS(=O)(=O)c1ccc2ncn(/C=C/C(=O)O)c(=O)c2c1
A: 284 to 290 °C

Q: Next record, please: CCCCCCCCCCOc1ccc(C(=O)O)cc1C(C)(C)C
A: 130 to 132 °C

Q: Please give the result for CC(=O)OC(CCl)c1cccnc1S(N)(=O)=O (stereo not drawn) too.
A: 146 to 147 °C

Q: Next: C=CCC12CCN=C1C(Br)Cc1ccc(OC)cc12 (stereo not drawn)
A: 112 to 117 °C

Q: Also c1ccc(CSc2ncnc3c(N4CCOCC4)nc(N4CCNCC4)nc23)cc1 , if possible.
A: 191 to 193 °C

Q: Then what about the compound Cc1ccc(-c2nnc(N3CCOCC3)nc2-c2ccc(C)cc2)cc1 ?
A: 190 to 192 °C

Q: Next: O=C(NC1(c2cccc(F)c2)CCC1)OCc1ccccc1
A: 81 to 82 °C

Q: Another: O=C1CCC(n2nc(-c3c(-c4ccccc4)nn4ccccc34)ccc2=O)CC1
A: 138 to 140 °C

Q: Now this one: Oc1cccc(-c2nc(-c3cccnc3)no2)c1
A: > 200 °C

Q: // same read-out, input: CC(C)c1nn(-c2nnc(C(F)(F)F)s2)cc1CCCO
A: 89 to 90 °C

Q: Same lookup for Cc1nc(S(=O)(=O)n2ccc(/C=C/C(=O)NO)c2)cn1C , please.
A: 190 to 194 °C

Q: Also need OP(O)C(NC(c1ccccc1)c1ccccc1)C1CCCCC1 (stereo not drawn) , thanks.
A: 199 °C

Q: Would you mind doing COC(=C1C2CC3CC1CC(O)(C3)C2)c1cccc(O)c1 as well?
A: 171 to 172 °C

Q: Please give the result for COc1ccc(-c2cc(C(F)F)nn2-c2ccc(S(N)(=O)=O)cc2)cc1 too.
A: 133 to 135 °C

Q: Query C/C(=C\COc1ccc(Cl)cc1Cl)C(=O)O next
A: 117 to 122 °C

Values compiled from a melting point compilation (Tetko et al.; mined from patent text by program, amines drawn as free bases though some values may be those of a salt).
